# assay procedure: Cytotoxicity determination in HepG2.2.15 cells (CCK-8)
# Assay type: cell-based
# condition: human, 6 days of compound treatment, CCK-8, highest concentration 100 μM
Quick reference for CC50 at 6 days among some molecules
Respond numerically; units are µM and should not be typed.

COC(=O)C1=C(C2CCN(S(C)(=N)=O)CC2)NC(c2nccs2)=NC1c1ccc(F)cc1Cl (single isomer, unassigned) [Compound 401Y]: 60

CC50 at 6 days reading for COC(=O)C1=C([C@H]2C[C@@H](NS(C)(=O)=O)C2)NC(c2nccs2)=NC1c1ccc(F)cc1Cl (single isomer, unassigned) [Compound 206D] : 39.2

CC50 at 6 days reading for CCOC(=O)C1=C(C2CCN(S(=O)(=O)[C@H]3CC[C@H](C(=O)O)CC3)CC2)NC(c2nccs2)=NC1c1ccc(F)c(F)c1Cl (relative stereo) [Compound 354C] : 7.9

CC50 at 6 days reading for COC(=O)C1=C(C2CCN(S(=O)(=O)[C@H]3CC[C@H](CC(=O)O)CC3)CC2)NC(c2nccs2)=NC1c1ccc(F)cc1Cl (relative stereo) [Compound 476A] : 30.4

* * *

# assay procedure: Cytotoxicity determination in HepG2.2.15 cells (CCK-8)
# Assay type: cell-based
# condition: human, 6 days of compound treatment, CCK-8, highest concentration 100 μM
observation type: CC50 at 6 days

CCS(=O)(=O)N1CCC(C2=C(C(=O)OC)C(c3ccc(F)cc3Cl)N=C(c3nccs3)N2)CC1 (stereo not drawn): 38 µM
COC(=O)C1=C(C2CCN(S(=O)(=O)C[C@H]3CC[C@H](C(=O)O)CC3)CC2)NC(c2nccs2)=NC1c1ccc(F)cc1Cl (stereo partly drawn): 26.9 µM
COC(=O)C1=C(C2CCN(S(=O)(=O)[C@H]3C[C@H](C(=O)O)C3)CC2)NC(c2nccs2)=NC1c1cccc(F)c1Br (relative stereo) [Compound 439B]: 53.8 µM
COC(=O)C1=C(C2CCN(S(=O)(=O)[C@H]3CC[C@@H](C(=O)O)CC3)CC2)NC(c2nccs2)=NC1c1ccc(F)cc1Cl (relative stereo) [Compound 313A]: 35 µM
CCOC(=O)C1=C([C@H]2CC[C@H](C(=O)OC)CC2)NC(c2nccs2)=NC1c1ccc(F)cc1Cl (single isomer, unassigned) [Compound 20X]: 27.2 µM

From here, focus on the item given below.
CC50 at 6 days reading for CCOC(=O)C[C@H]1CC[C@H](C2=C(C(=O)OC)C(c3cccc(F)c3Cl)N=C(c3nccs3)N2)CC1 (relative stereo) : 49.3 µM

* * *

# System: HBV
# assay procedure: HBV inhibitory activity: HBV DNA in the culture medium of HepG2.2.15 cells by q-PCR
# Type: cell-based
# condition: HepG2.2.15 cells, 6 days of compound treatment, HBV DNA in culture medium by q-PCR, highest concentration 10 μM; read-out: EC50
Quick reference for pEC50 among some compounds
# pEC50 = -log10(concentration in molar units)

Here is how some compounds turned out for pEC50.
COC(=O)C1=C(C2CCC(C(=O)O)C2)NC(c2nccs2)=NC1c1ccc(F)cc1Cl (single isomer, unassigned) [Compound 72C]: 6.32
COC(=O)C1=C(C2COC(CO)C2)NC(c2nccs2)=NC1c1cccc(F)c1Cl (single isomer, unassigned) [Compound 219H]: 6.48

pEC50 reading for COC(=O)C1=C(C2CCN(S(=O)(=O)C3CC(C)(C(=O)O)C3)CC2)NC(c2nccs2)=NC1c1ccc(F)cc1Br (single isomer, unassigned) [Compound 410D] : 7.37

pEC50 reading for COC(=O)C1=C(C2CCN(S(=O)(=O)C3CC(O)C3)CC2)NC(c2nccs2)=NC1c1ccc(F)cc1Cl (single isomer, unassigned) [Compound 335B] : 7.89

pEC50 reading for COC(=O)C1=C(C2CCC(NC(C)=O)C2)NC(c2nccs2)=NC1c1ccc(F)c(F)c1Cl (single isomer, unassigned) [Compound 300B] : 7.89

pEC50 reading for COC(=O)C1=C(C2CCN(S(=O)(=O)C3CC(C)(C(=O)O)C3)CC2)NC(c2nccs2)=NC1c1ccc(F)cc1C (centres unmarked) [Compound 447C] : 7.10

pEC50 reading for CCOC(=O)C1=C([C@H]2CC[C@H](C(=O)O)CO2)NC(c2nccs2)=NC1c1ccc(F)cc1Cl (single isomer, unassigned) [Compound 363E] : 6.53

pEC50 reading for COC(=O)C1=C(C2CCC(NS(C)(=O)=O)C2)NC(c2nccs2)=NC1c1cccc(F)c1Cl (single isomer, unassigned) [Compound 61D] : 7.46

pEC50 reading for CCOC(=O)C1=C(C2CCN(S(=O)(=O)CC3CC(C(=O)O)C3)CC2)NC(c2nccs2)=NC1c1ccc(F)c(F)c1Cl (centres unmarked) [Compound 480Y] : 7.96

pEC50 reading for COC(=O)C1=C(C2CCC(NC(C)=O)C2)NC(c2nccs2)=NC1c1ccc(F)c(F)c1Cl (single isomer, unassigned) [Compound 300D] : 7.85

pEC50 reading for CCOC(=O)C1=C([C@@H]2CC[C@H](C(=O)O)OC2)NC(c2nccs2)=NC1c1ccc(F)cc1Cl (single isomer, unassigned) [Compound 265E] : 6.01

pEC50 reading for COC(=O)C1=C(C2COC(CO)C2)NC(c2nccs2)=NC1c1cccc(F)c1Cl (single isomer, unassigned) [Compound 219A] : 6.72
